test: Partition coefficient (logP); assay type: physicochemical; conditions: octanol/water
Each entry below carries its reported logP.
measured-endpoint: logP

CCCNc1cc(-c2n[nH]c(N)n2)ccn1 ... 1.61
Nc1n[nH]c(-c2ccnc(NCCO)c2)n1 ... 0.24
Cc1ccc(CNc2cc(-c3n[nH]c(N)n3)ccn2)cc1 ... 2.69

* * *

tested on: Canis familiaris; experiment: Maximum percent inhibition of acid output in pentagastrin-stimulated Heidenhain pouch dog at dose (5 mg/kg) administered intravenously; type: functional; conditions: Canis lupus familiaris, iv
measured-endpoint: inhibition in vivo at 5 mg/kg (%)

CC(C)Nc1cc(-c2n[nH]c(N)n2)ccn1 ... 52
CCCNc1cc(-c2n[nH]c(N)n2)ccn1 ... 64
Cc1cc(-c2n[nH]c(N)n2)ccn1 ... 60
CCNc1cc(-c2n[nH]c(CC)n2)ccn1 ... 17
Cc1ccc(CNc2cc(-c3n[nH]c(N)n3)ccn2)cc1C ... 49
CCc1cc(-c2n[nH]c(N)n2)ccn1 ... 55
CN(C)c1cc(-c2n[nH]c(N)n2)ccn1 ... 80
Cc1ccc(CNc2cc(-c3n[nH]c(N)n3)ccn2)cc1 ... 33
CCCc1cc(-c2n[nH]c(N)n2)ccn1 ... 0

* * *

tested on: Canis familiaris; experiment: Maximum percent inhibition of acid output in pentagastrin-stimulated Heidenhain pouch dog following 1 mg/kg i.v. administration.; type: functional; conditions: Canis lupus familiaris, route intravenous
measured-endpoint: inhibition in vivo at 1 mg/kg (%)

COCCNc1cc(-c2n[nH]c(N)n2)ccn1 ... 11
C=CCNc1cc(-c2nc(N)n[nH]2)ccn1 ... 31
Nc1n[nH]c(-c2ccnc(N3CCCC3)c2)n1 ... 0
CCCCNc1cc(-c2n[nH]c(N)n2)ccn1 ... 29
Nc1n[nH]c(-c2ccnc(NCc3ccccc3)c2)n1 ... 21
CN(C)c1cc(-c2n[nH]c(N)n2)ccn1 ... 48
CCNc1cc(-c2n[nH]c(NCC)n2)ccn1 ... 38
Cc1cc(-c2n[nH]c(N)n2)ccn1 ... 26
CCNc1cc(-c2n[nH]c(CO)n2)ccn1 ... 20
CCN(C)c1cc(-c2n[nH]c(N)n2)ccn1 ... 42
CCNc1cc(-c2n[nH]c(C)n2)ccn1 ... 35
CCNc1cc(-c2c[nH]c(N)n2)ccn1 ... 22
CCCNc1cc(-c2n[nH]c(N)n2)ccn1 ... 33
CCNc1cc(-c2n[nH]c(NC)n2)ccn1 ... 35
Nc1n[nH]c(-c2ccnc(NCc3ccc(Cl)cc3)c2)n1 ... 21
CNc1cc(-c2n[nH]c(N)n2)ccn1 ... 50

* * *

system: Canis familiaris; assay: Maximum percent inhibition of acid output in pentagastrin-stimulated Heidenhain pouch dog following 10 mg/kg i.v. administration.; format: functional; conditions: Canis lupus familiaris, route intravenous
measured-endpoint: inhibition in vivo at 10 mg/kg (%)

CCNc1cc(-c2n[nH]c(Cc3ccccc3)n2)ccn1 ... 19
COCCNc1cc(-c2n[nH]c(N)n2)ccn1 ... 50
Nc1n[nH]c(-c2ccnc(NCCO)c2)n1 ... 34
CCCc1n[nH]c(-c2ccnc(NCC)c2)n1 ... 45
Nc1n[nH]c(-c2ccnc(Nc3ccccc3)c2)n1 ... 0
CCNc1cc(-c2n[nH]c(CO)n2)ccn1 ... 53
Nc1n[nH]c(-c2ccnc(NCCc3ccccc3)c2)n1 ... 50
